measured on: PI3Kδ (Homo sapiens)
Construct: purchased Reaction Biology Corporation
Sequence (O00329 whole entry): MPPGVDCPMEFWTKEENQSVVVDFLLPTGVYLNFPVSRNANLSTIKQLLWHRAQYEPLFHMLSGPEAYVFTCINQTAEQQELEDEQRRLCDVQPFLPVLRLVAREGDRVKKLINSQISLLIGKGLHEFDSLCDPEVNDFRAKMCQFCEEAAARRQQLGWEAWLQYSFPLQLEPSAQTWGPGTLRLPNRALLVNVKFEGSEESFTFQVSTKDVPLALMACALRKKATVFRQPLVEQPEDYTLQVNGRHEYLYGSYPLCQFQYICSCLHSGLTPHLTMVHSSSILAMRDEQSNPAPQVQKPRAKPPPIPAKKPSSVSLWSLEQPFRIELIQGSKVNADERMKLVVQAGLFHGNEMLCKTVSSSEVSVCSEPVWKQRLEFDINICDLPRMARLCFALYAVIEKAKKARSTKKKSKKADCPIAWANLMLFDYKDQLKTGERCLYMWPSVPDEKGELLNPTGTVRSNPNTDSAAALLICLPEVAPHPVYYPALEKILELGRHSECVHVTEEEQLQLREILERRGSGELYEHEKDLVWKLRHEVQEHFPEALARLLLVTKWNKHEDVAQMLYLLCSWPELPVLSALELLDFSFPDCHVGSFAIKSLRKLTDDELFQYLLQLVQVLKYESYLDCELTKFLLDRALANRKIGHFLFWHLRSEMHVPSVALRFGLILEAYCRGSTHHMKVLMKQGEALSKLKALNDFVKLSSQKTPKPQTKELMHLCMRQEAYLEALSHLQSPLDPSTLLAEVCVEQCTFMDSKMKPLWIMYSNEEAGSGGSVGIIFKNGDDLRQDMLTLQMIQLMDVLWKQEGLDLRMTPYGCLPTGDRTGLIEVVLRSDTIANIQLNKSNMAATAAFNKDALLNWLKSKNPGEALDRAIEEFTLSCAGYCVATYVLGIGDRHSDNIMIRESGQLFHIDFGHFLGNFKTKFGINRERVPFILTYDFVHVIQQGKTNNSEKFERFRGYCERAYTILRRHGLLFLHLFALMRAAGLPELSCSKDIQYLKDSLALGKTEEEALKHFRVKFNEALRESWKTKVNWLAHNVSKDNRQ
Sequence (P27986 whole entry partner): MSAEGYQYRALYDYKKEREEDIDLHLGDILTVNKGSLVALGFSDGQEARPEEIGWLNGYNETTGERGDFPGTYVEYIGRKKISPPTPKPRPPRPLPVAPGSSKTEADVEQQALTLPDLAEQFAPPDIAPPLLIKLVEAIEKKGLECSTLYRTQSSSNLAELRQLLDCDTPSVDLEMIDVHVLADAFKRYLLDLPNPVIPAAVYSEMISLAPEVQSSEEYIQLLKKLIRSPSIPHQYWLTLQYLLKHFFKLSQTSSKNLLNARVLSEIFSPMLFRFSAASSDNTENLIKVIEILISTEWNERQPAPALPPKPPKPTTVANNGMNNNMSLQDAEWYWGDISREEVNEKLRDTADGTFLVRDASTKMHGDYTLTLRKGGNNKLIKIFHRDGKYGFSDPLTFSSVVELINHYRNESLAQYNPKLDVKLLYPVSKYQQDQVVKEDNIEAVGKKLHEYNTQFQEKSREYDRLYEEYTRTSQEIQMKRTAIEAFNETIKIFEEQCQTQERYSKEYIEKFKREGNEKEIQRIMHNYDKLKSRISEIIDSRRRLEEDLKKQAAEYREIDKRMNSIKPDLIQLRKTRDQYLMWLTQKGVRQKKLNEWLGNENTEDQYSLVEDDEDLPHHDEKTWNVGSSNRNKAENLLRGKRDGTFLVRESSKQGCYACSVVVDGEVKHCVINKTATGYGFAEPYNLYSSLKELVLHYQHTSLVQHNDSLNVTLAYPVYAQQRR
measurement description: PI3Kδ kinase assay (HTRF, PIP3 detection)
Assay type: biochemical
condition description: 0.1 μM compound, 10 μM ATP
From the text: Compounds of the invention were profiled in a 10 dose IC50 panel against BTK and PI3Kδ, both provided by Reaction Biology Corporation. PI3Kδ assay: The PIP3 product is detected by displacement of biotin-PIP3 from an energy transfer complex consisting of Europium labeled anti-GST monoclonal antibody, a GST-tagged pleckstrin homology (PH) domain, biotinylated PIP3 and Streptavidin-Allophycocyanin (APC). […]
API: label(entry) gives Y if the entry's PI3Kδ @ 0.1 μM (% Inh) is strictly smaller than 60 % Inh; on equality or larger values it gives N.

Example results:
>>> label_class("Nc1ncnc2c1c(-c1cc(O)c(F)c(F)c1)nn2C1Cc2ccccc2C1 [Compound No. 81]")
"N"
>>> label_class("Nc1ncnc2c1c(-c1cc(O)cc(F)c1)nn2C1CCc2cc(F)ccc21 (stereo not shown) [compound 42]")
"N"
>>> label_class("Nc1nccn2c(C3Cc4ccccc4C3)nc(-c3cc(O)c(F)c(F)c3)c12 [compound 140]")
"N"

Dear colleague, could you confirm whether PI3Kδ @ 0.1 μM (% Inh) of COc1ccc(-c2nn(C3Cc4ccccc4C3)c3ncnc(N)c23)cc1O [Compound No. 68] falls below 60 % Inh? Thanks. Y

And for Cn1ncc2c(-c3nn(C4Cc5ccccc5C4)c4ncnc(N)c34)cccc21 [Compound No. 98] ? Y

What about Nc1ncnc2c1c(-c1ccnc3[nH]ccc13)nn2C1Cc2ccccc2C1 [Compound No. 70] ? Y

Next molecule up: Nc1ncnc2c1c(-c1cnc3[nH]ccc3c1)nn2C1CCc2ccccc2C1 (racemic) [compound 16] Y

Could you do the same for Nc1cc(-c2nn(C3Cc4ccccc4C3)c3ncnc(N)c23)cc(F)c1F [compound 109] , please? Y

Follow-up item: Nc1ncnc2c1c(-c1cc(O)cc(F)c1)nn2C1CCCc2ccc(F)cc21 (stereo not shown) [compound 41] N

// query: N#Cc1cc(-c2nn(C3CCc4ccccc4C3)c3ncnc(N)c23)cc(O)c1F (stereo not shown) [compound 130] N

Also check COc1cc(-c2nn(C3Cc4ccccc4C3)c3ncnc(N)c23)cc(F)c1F [Compound No. 91] Y

Also check NC(=O)c1cc(-c2cn(C3Cc4ccccc4C3)c3ncnc(N)c23)cc(O)c1F [compound 116] N
